The measurements presented in this section are drawn from paper PMC6858323.

B1: PilT^Pa two-hybrid fusion from pKT25::PilT^Pa (wild type) [Pseudomonas aeruginosa] / PilC^Pa two-hybrid fusion from pUT18C::PilC^Pa [Pseudomonas aeruginosa] (parent complex)
chain 1: MDITELLAFSAKQGASDLHLSAGLPPMIRVDGDVRRINLPPLEHKQVHALIYDIMNDKQRKDFEEFLETDFSFEVPGVARFRVNAFNQNRGAGAVFRTIPSKVLTMEELGMGEVFKRVSDVPRGLVLVTGPTGSGKSTTLAAMLDYLNNTKYHHILTIEDPIEFVHESKKCLVNQREVHRDTLGFSEALRSALREDPDIILVGEMRDLETIRLALTAAETGHLVFGTLHTTSAAKTIDRVVDVFPAEEKAMVRSMLSESLQSVISQTLIKKIGGGRVAAHEIMIGTPAIRNLIREDKVAQMYSAIQTGGSLGMQTLDMCLKGLVAKGLISRENAREKAKIPENF
chain 2: MLVKAHLRKQGINPLKVRKKGISLLGAGKKVKPMDIALFTRQMATMMGAGVPLLQSFDIIGEGFDNPNMRKLVDEIKQEVSSGNSLANSLRKKPQYFDELYCNLVDAGEQSGALENLLDRVATYKEKTESLKAKIRKAMTYPIAVIIVALIVSAILLIKVVPQFQSVFQGFGAELPAFTQMVVNLSEFLQEWWLAVIVGVGAIGFTFKELHKRSKKFRDTLDRTILKLPIFGGIVYKSAVARYARTLSTTFAAGVPLVDALDSVSGATGNIVFKNAVSKIKQDVSTGMQLNFSMRTTSVFPNMAIQMTAIGEESGSLDEMLSKVASYYEEEVDNAVDNLTTLMEPMIMAVLGVLVGGLIVAMYLPIFQLGNVVG

# Variants of: B1
# assay comment: bacterial two-hybrid (BACTH), β-galactosidase activity; E. coli BTH101; n = 3; parent: 650; read off a plot
Recorded response for the following variants

- mut: "chain 1 T216R"
  response: "~700 Miller units"
- mut: "chain 1 D242K"
  response: "~670 Miller units"
- mut: "chain 1 R123D"
  response: "~140 Miller units"
- mut: "chain 1 K58Q"
  response: "~630 Miller units"
- mut: "chain 1 E258A"
  response: "~850 Miller units"
- mut: "chain 1 K58R"
  response: "~750 Miller units"
- mut: "chain 1 E219K"
  response: "~230 Miller units"
- mut: "chain 1 K58A"
  response: "~700 Miller units"
- mut: "chain 1 D31K"
  response: "~220 Miller units"
- mut: "chain 1 R294E"
  response: "~200 Miller units"
- mut: "chain 1 R239A"
  response: "~490 Miller units"
